- assaySystem: human FOXO1 (constitutively active form Thr24Ala, Ser256Ala, Ser319Ala) (Homo sapiens, UniProt Q12778, S256A/S319A/T24A)
- Sequence (Q12778 whole entry T24A/S256A/S319A): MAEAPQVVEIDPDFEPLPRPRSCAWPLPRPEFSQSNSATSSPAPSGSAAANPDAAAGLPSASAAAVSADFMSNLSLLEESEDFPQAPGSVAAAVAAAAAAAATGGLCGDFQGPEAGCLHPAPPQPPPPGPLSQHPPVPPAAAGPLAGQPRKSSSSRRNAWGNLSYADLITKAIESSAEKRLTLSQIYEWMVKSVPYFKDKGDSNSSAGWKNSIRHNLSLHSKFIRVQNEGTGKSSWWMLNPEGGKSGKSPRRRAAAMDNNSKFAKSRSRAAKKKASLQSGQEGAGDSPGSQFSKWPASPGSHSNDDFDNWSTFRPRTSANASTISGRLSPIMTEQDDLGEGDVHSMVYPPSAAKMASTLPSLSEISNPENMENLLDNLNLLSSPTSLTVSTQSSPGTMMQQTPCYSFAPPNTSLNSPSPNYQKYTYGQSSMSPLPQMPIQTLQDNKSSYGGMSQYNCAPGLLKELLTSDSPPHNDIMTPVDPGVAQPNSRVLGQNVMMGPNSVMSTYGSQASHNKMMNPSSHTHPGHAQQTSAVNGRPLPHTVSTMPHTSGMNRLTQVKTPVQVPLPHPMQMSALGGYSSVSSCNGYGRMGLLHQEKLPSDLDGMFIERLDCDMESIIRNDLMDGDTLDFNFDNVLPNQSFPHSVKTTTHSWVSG
- testName: FOXO1 inhibitor activity assay: cell-based transcriptional (luciferase) reporter assay in HEK293 cells
- experimentalConditions: HEK293 cells transfected with insulin response element firefly luciferase reporter, FOXO1 and Renilla luciferase; 10-point dose response 50 μM to 2.5 nM; 24 hours
Entries and their IC50

cpdSmiles | valueKind | result
CN(C)C1CCN(c2ccc(C(=O)Nc3cc(-c4nc5cccc(F)c5[nH]4)n(C)n3)cn2)CC1 | IC50 | 100 to 300 nM
Cn1nc(NC(=O)c2ccc(N3CCC(N4CCOCC4)CC3)nc2)cc1-c1nc2cc(F)ccc2[nH]1 | IC50 | 100 to 300 nM
COc1ccc(C(=O)Nc2cc(-c3nc4ccc(OC)c(F)c4[nH]3)[nH]n2)cc1Cl | IC50 | 100 to 300 nM
CC(C)(O)C1CCN(c2ccc(C(=O)Nc3cc(-c4nc5ccccc5[nH]4)[nH]n3)cn2)CC1 | IC50 | < 100 nM
Cn1nc(NC(=O)c2ccc(N3CCN4C(=O)CC[C@@H]4C3)nc2)cc1-c1nc2ccccc2[nH]1 | IC50 | 100 to 300 nM

**Q:** Please look up its IC50: `O=C(Nc1cc(-c2nc3ccccc3[nH]2)[nH]n1)c1ccc(N2CCC(O)CC2)cc1`
**A:** < 100 nM

**Q:** Please look up its IC50: `O=C(Nc1cc(-c2nc3ccccc3[nH]2)[nH]n1)c1ccc(N2CCN(C3COC3)CC2)nc1`
**A:** < 100 nM

**Q:** Please look up its IC50: `COCCSc1ccc(C(=O)Nc2cc(-c3nc4ccccc4[nH]3)[nH]n2)cc1Cl`
**A:** < 100 nM

**Q:** Please look up its IC50: `COc1ccc(C(=O)Nc2cc(-c3nc4cc(F)ccc4[nH]3)n(C)n2)cc1Cl`
**A:** < 100 nM

**Q:** Please look up its IC50: `COCCOc1ccc(C(=O)Nc2cc(-c3nc4ccccc4[nH]3)[nH]n2)cc1F`
**A:** < 100 nM

**Q:** Please look up its IC50: `O=C(Nc1cc(-c2nc3cc(Cl)ccc3[nH]2)[nH]n1)c1ccc(N2CCC(O)CC2)nc1`
**A:** > 1000 nM

**Q:** Please look up its IC50: `O=C(Nc1cc(-c2nc3cc(C(F)(F)F)ccc3[nH]2)[nH]n1)c1ccc(N2CCC(CO)CC2)nc1`
**A:** > 1000 nM

**Q:** Please look up its IC50: `COCCOc1ccc(C(=O)Nc2cc(-c3nc4cc(F)ccc4[nH]3)n(C)n2)cc1Cl`
**A:** < 100 nM

**Q:** Please look up its IC50: `Cn1nc(NC(=O)c2ccc(OCCO)c(Cl)c2)cc1-c1nc2ccccc2[nH]1`
**A:** < 100 nM

**Q:** Please look up its IC50: `CN1CCN(c2ccc(C(=O)Nc3nc(-c4nc5ccccc5[nH]4)n(C)n3)cc2)CC1`
**A:** 300 to 1000 nM

**Q:** Please look up its IC50: `O=C(Nc1cc(-c2nc3ccccc3[nH]2)[nH]n1)c1ccc(N2CCOCC2)nc1`
**A:** < 100 nM

* * *

- assaySystem: human FOXO1 (constitutively active form Thr24Ala, Ser256Ala, Ser319Ala) (Homo sapiens, UniProt Q12778, S256A/S319A/T24A)
- testName: FOXO1 inhibitor activity assay: cell-based transcriptional (luciferase) reporter assay in HEK293 cells
- experimentalConditions: HEK293 cells transfected with insulin response element firefly luciferase reporter, FOXO1 and Renilla luciferase; 10-point dose response 50 μM to 2.5 nM; 24 hours
pIC50: −log10 of the molar value.
valueKind: pIC50

Here are 2 molecules together with their reported answers.
molecule | pIC50
CN1CCN(c2ccc(C(=O)Nc3cc(-c4nc5ccccc5[nH]4)n(C)n3)cc2)CC1=O [Compound A-235] | 6.52 to 7.00
CN1CCN(c2ncc(C(=O)Nc3cc(-c4nc5ccccc5[nH]4)[nH]n3)cn2)CC1 [Compound A-180] | 6.52 to 7.00

**Q:** Please look up its pIC50: COc1ccc(C(=O)Nc2cc(C(=O)NC3COC3)[nH]n2)cc1Cl [Compound A-16]
**A:** < 6.00

**Q:** Please look up its pIC50: COC1CN(c2ccc(C(=O)Nc3cc(-c4nc5ccccc5[nH]4)n(CCO)n3)cn2)C1 [Compound A-196]
**A:** < 6.00

* * *

- assaySystem: human FOXO1 (constitutively active form Thr24Ala, Ser256Ala, Ser319Ala) (Homo sapiens, UniProt Q12778, S256A/S319A/T24A)
- testName: FOXO1 inhibitor activity assay: cell-based transcriptional (luciferase) reporter assay in HEK293 cells
- experimentalConditions: HEK293 cells transfected with insulin response element firefly luciferase reporter, FOXO1 and Renilla luciferase; 10-point dose response 50 μM to 2.5 nM; 24 hours
Entries and their IC50

Here are 3 compounds together with their reported answers.
compound | IC50
COc1ccc2[nH]c(-c3cc(NC(=O)c4ccc(OCCO)c(Cl)c4)n[nH]3)nc2c1 | < 100 nM
O=C(Nc1cc(-c2nc3ccccc3[nH]2)[nH]n1)c1ccc(N2CCN(C3COC3)CC2)cc1 | < 100 nM
O=C(Nc1cc(-c2nc3ccccc3[nH]2)[nH]n1)c1ccc(N2CCN(CCO)CC2)nc1 | 100 to 300 nM

**Q:** Please look up its IC50: Cc1nc(N2CCOC(CO)C2)ccc1C(=O)Nc1cc(-c2nc3ccccc3[nH]2)n(C)n1 (stereo not drawn)
**A:** 100 to 300 nM

**Q:** Please look up its IC50: `COc1ccc(C(=O)Nc2cc(-c3nc4cc(OCCO)ccc4[nH]3)[nH]n2)cc1Cl`
**A:** < 100 nM

**Q:** Please look up its IC50: `COC1CN(c2ccc(C(=O)Nc3cc(-c4nc5cc(F)ccc5[nH]4)n(C)n3)cn2)C1`
**A:** 300 to 1000 nM

* * *

- assaySystem: human FOXO1 (constitutively active form Thr24Ala, Ser256Ala, Ser319Ala) (Homo sapiens, UniProt Q12778, S256A/S319A/T24A)
- testName: FOXO1 inhibitor activity assay: cell-based transcriptional (luciferase) reporter assay in HEK293 cells
- experimentalConditions: HEK293 cells transfected with insulin response element firefly luciferase reporter, FOXO1 and Renilla luciferase; 10-point dose response 50 μM to 2.5 nM; 24 hours
pIC50: −log10 of the molar value.
Entries and their pIC50

Here are 5 compounds together with their reported answers.
compound | valueKind | result
O=C(Nc1cc(-c2nc3cc(OC(F)(F)F)ccc3[nH]2)[nH]n1)c1ccc(N2CCOCC2)nc1 | pIC50 | < 6.00
O=C(Nc1cc(-c2nc3cc(Cl)ccc3[nH]2)[nH]n1)c1ccc(N2CCC(CO)CC2)nc1 | pIC50 | < 6.00
CC(=O)N1CCN(c2ccc(C(=O)Nc3cc(-c4nc5ccccc5[nH]4)n(C)n3)cn2)CC1 [Compound A-226] | pIC50 | 6.52 to 7.00
O=C1CN(c2ccc(C(=O)Nc3cc(-c4nc5ccccc5[nH]4)[nH]n3)cn2)CCN1 | pIC50 | 6.00 to 6.52
CC1CN(c2ccc(C(=O)Nc3cc(-c4nc5ccccc5[nH]4)n(C)n3)cn2)CC(CO)O1 (single isomer, unassigned) [Compound A-294] | pIC50 | > 7.00

**Q:** Please look up its pIC50: `COCCOc1ccc(C(=O)Nc2cc(-c3nc4ccccc4[nH]3)[nH]n2)cc1OC`
**A:** > 7.00

**Q:** Please look up its pIC50: Cn1nc(NC(=O)c2ccc(N3CCN4C(=O)CCC4C3)nc2)cc1-c1nc2ccccc2[nH]1 (stereo not shown)
**A:** 6.52 to 7.00

* * *

- assaySystem: human FOXO1 (constitutively active form Thr24Ala, Ser256Ala, Ser319Ala) (Homo sapiens, UniProt Q12778, S256A/S319A/T24A)
- testName: FOXO1 inhibitor activity assay: cell-based transcriptional (luciferase) reporter assay in HEK293 cells
- experimentalConditions: HEK293 cells transfected with insulin response element firefly luciferase reporter, FOXO1 and Renilla luciferase; 10-point dose response 50 μM to 2.5 nM; 24 hours
- Experimental: The inhibitory activities of compounds on FOXO1 were determined by a cell-based transcriptional reporter assay. […] Luciferase activities in each well were measured using Dual-Glog Luciferase Assay System (Promega) according to manufacturer's protocol and an Envision plate reader suitable for luminescence detection. […] The ratio in each well receiving compound treatment was normalized and expressed as a percentage. […]
valueKind: IC50

compound | valueKind | result
COCCN1CCN(c2ccc(C(=O)Nc3cc(-c4nc5cccc(F)c5[nH]4)n(C)n3)cn2)CC1 [Compound A-154] | IC50 | 100 to 300 nM

**Q:** Please look up its IC50: Cn1nc(NC(=O)c2ccc(N3CCOCC3)cc2)cc1-c1nc2ccccc2[nH]1 [Compound A-95]
**A:** 100 to 300 nM

**Q:** Please look up its IC50: COCCn1nc(NC(=O)c2ccc(N3CCN(C)CC3)cc2)cc1-c1nc2ccccc2[nH]1 [Compound A-185]
**A:** > 1000 nM

**Q:** Please look up its IC50: C[C@@H]1COCCN1c1ccc(C(=O)Nc2cc(-c3nc4ccccc4[nH]3)n(C)n2)cn1 [Compound A-229]
**A:** 100 to 300 nM

**Q:** Please look up its IC50: C[C@@H]1CN(c2ccc(C(=O)Nc3cc(-c4nc5ccccc5[nH]4)n(C)n3)cn2)C[C@H](C)N1CCO [Compound A-278]
**A:** 100 to 300 nM

**Q:** Please look up its IC50: COC[C@H](C)Nc1ccc(C(=O)Nc2cc(-c3nc4ccccc4[nH]3)[nH]n2)cn1 [Compound A-73]
**A:** 300 to 1000 nM

**Q:** Please look up its IC50: O=C(Nc1cc(-c2nc3ccccc3[nH]2)[nH]n1)c1ccc(NCCO)c(Cl)c1 [Compound A-78]
**A:** 100 to 300 nM

**Q:** Please look up its IC50: Cc1nc(N2CCOCC2)ccc1C(=O)Nc1cc(-c2nc3ccccc3[nH]2)n(C)n1 [Compound A-236]
**A:** 100 to 300 nM

Measured values drawn from patent US20230416228A1 for this set.
